Test system: Fer (mouse)
Assay Notes: phosphorylation enrichment, bacterial display (enrichment ratio); higher = better substrate or ligand; peptides without Tyr show the background;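 further: 11-residue human phosphosite peptides and single-mutation variants displayed on the E. coli surface, counted by deep sequencing, each peptide's frequency after selection divided by its frequency in the unselected input library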;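 further: frequency after pTyr selection over input frequency; kinase dosed for 20-30% of maximal phosphorylation in three min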
# phosphorylation enrichment binned as low: < 0.4; middle: ≥ 0.4 and < 0.6; high: ≥ 0.6

seq="ENFDDYMKDVG [FABP4_Y20_E23D]" label=middle
seq="SHMVDYQPFRK [TEX37_Y25_YF]" label=low
seq="LGKLTYPVGFW [NTHL1_Y177_I176T]" label=high
seq="LYSNAYLNDLA [ALDH1A1_Y119]" label=high
seq="LNPLFYSLRNK [OR5R1_Y290_I289F]" label=high

Ask: Input FGYPGYQSKHY [TIMP3_Y177] ; output its category
Result: middle

Ask: Continue with RFLERDIFNRE [HLA-DPB1_Y57_Y57D_YF]
Result: high

Ask: Now the sequence SSDKVYAHQMV [MLH1_Y379]
Result: middle

====

Measurement Target: EPHB2 (UniProt P29323)
Sequence (P29323 whole entry, looked up): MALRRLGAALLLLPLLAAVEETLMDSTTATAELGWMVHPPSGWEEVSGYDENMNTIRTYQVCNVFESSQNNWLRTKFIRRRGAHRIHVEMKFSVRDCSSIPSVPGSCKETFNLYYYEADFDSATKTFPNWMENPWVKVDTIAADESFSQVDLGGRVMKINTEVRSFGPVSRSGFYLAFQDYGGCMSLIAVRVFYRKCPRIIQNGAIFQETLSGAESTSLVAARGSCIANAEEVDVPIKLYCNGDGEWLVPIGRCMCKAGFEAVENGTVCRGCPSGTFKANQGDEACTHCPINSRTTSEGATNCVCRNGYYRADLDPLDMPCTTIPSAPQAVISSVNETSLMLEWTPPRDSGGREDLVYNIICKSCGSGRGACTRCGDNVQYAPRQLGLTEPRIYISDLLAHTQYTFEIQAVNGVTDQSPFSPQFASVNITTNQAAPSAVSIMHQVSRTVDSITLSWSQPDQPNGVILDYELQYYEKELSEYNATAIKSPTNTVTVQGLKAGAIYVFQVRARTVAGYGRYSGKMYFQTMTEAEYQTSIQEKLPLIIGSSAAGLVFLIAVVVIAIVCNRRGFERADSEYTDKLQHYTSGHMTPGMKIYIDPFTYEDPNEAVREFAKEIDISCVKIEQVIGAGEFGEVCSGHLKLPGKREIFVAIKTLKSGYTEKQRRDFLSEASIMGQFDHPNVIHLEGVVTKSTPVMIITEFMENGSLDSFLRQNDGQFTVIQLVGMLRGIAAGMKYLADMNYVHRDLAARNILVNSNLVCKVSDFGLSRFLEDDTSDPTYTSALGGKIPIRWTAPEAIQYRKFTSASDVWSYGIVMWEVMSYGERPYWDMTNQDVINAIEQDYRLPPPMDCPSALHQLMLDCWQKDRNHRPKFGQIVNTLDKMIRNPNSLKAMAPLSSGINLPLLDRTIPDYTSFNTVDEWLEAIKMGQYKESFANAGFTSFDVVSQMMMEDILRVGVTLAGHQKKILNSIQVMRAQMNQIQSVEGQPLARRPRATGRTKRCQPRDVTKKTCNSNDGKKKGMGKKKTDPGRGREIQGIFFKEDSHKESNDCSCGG
Assay Notes: phosphorylation enrichment, bacterial display (enrichment ratio); higher = better substrate or ligand; peptides without Tyr show the background
Listed below: phosphorylation enrichment values for each entry.
Answer using only a numeral; do not append any unit.

# example entries with known answers
seq="SVVVPYEPPGV [TP53_Y220_E224G]" data_value=0.53
seq="FKEIVYAVSSD [DCX_Y70_G67E]" data_value=0.644
seq="PRNLIYFGEHP [TRPV6_Y201_C197R]" data_value=0.925
seq="ELAKFYKLHHI [AK7_Y391_N389K_YF]" data_value=0.452
seq="RGFDTYFGYLL [ARSB_Y165]" data_value=8.25

We next turn to a different sequence, shown below.
Ask: What measured phosphorylation enrichment is associated with GLRSFYETSKM [MAGED2_Y449_YF] on EPHB2 (UniProt P29323)?
Result: 0.342

====

This section presents sequences with their documented phosphorylation enrichment values.
Test system: c-Src
Assay Notes: phosphorylation enrichment, bacterial display (enrichment ratio); higher = better substrate or ligand; peptides without Tyr show the background

seq="EYLQKYKGFKI [SYNE1_Y6953]" measurement_target=c-Src data_value=0.323
seq="GGPTFYIDTNA [ACTL6A_Y69_YF]" measurement_target=c-Src data_value=0.439
seq="IPGRYYETGSI [PAX2_Y73_L69P]" measurement_target=c-Src data_value=0.437
seq="KVPELYEIHKE [BCR_Y554]" measurement_target=c-Src data_value=0.603
seq="YGGLRYGYGVL [KRTAP20-2_Y13]" measurement_target=c-Src data_value=1.64

Ask: Recorded phosphorylation enrichment for QRNEEYCLLDS [ITK_Y198_R193Q] , please?
Result: 0.963

Ask: Here is the next sequence: ESMLRYEVFGG [STOX1_Y607_YF]
Result: 1.04

====

Measurement Target: MERTK (UniProt Q12866)
Sequence (Q12866 whole entry, looked up): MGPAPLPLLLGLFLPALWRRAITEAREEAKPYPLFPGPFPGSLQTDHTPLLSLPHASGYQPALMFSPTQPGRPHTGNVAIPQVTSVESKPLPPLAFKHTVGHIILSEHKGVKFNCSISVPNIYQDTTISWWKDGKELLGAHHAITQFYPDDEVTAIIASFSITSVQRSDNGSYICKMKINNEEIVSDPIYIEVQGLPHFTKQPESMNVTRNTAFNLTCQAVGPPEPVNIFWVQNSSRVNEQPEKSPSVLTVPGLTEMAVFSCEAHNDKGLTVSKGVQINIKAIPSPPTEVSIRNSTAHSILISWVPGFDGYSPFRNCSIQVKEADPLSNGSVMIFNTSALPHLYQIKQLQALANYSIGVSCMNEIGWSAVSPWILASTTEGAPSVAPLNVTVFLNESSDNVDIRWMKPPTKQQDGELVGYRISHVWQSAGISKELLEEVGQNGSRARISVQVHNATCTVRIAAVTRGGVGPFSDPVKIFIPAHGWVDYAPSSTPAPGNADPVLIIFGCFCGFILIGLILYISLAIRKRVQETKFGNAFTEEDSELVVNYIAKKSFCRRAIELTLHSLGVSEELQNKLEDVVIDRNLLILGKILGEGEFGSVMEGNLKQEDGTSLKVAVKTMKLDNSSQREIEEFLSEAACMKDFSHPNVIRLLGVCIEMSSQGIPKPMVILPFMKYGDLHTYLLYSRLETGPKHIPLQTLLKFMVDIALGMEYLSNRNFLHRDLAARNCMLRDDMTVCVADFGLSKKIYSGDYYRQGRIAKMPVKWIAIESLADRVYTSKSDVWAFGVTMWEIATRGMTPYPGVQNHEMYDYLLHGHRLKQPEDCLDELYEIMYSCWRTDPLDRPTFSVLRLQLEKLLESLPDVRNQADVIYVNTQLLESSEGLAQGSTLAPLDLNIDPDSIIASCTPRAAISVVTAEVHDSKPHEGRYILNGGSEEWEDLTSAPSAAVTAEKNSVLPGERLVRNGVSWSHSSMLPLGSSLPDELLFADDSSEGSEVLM
Assay Notes: phosphorylation enrichment, bacterial display (enrichment ratio); higher = better substrate or ligand; peptides without Tyr show the background
Recorded Metric: phosphorylation enrichment

Take a look at these entries with their results.
seq="LNAGAYSKVVE [PPT1_Y172_Q177E]" recorded_metric="phosphorylation enrichment" data_value=0.448
seq="RMLRKYQELMS [KRT74_Y425_E424K]" recorded_metric="phosphorylation enrichment" data_value=0.485
seq="PLGKDYRKAEG [MAP1A_Y1909]" recorded_metric="phosphorylation enrichment" data_value=0.589
seq="MSRFIYSTDFF [NTRK1_Y676_D674Y_YF]" recorded_metric="phosphorylation enrichment" data_value=8.57
seq="QLQQAYQEAFE [YWHAZ_Y149_S145L]" recorded_metric="phosphorylation enrichment" data_value=1.29
seq="MSRDIYSTDYY [NTRK1_Y676]" recorded_metric="phosphorylation enrichment" data_value=9.04

Ask: phosphorylation enrichment lookup needed for MGSFNYLGFPR [SPTLC2_Y178_A182P_YF] , thanks.
Result: 0.518

Ask: How about TKGMIYGGGGG [PSME1_Y249] ?
Result: 0.433

====

Test system: c-Abl (mouse)
Assay Notes: phosphorylation enrichment, bacterial display (enrichment ratio); higher = better substrate or ligand; peptides without Tyr show the background
Label scheme for phosphorylation enrichment: bucket A (below 0.6), bucket B (0.6 to below 0.9), bucket C (0.9 or more)

seq="RLYARYFQGDL [PDK3_Y337]" label="bucket C"
seq="DPEATYTTSGG [EPHA2_Y772]" label="bucket C"
seq="RNDLDYMDSRR [GAA_Y407_W402R]" label="bucket B"
seq="DGLALYTGSAL [COL6A3_Y524_S521L]" label="bucket B"
seq="ETMNKYDLSGR [MYEF2_Y164]" label="bucket A"
seq="QDEPTYARSSK [PEAK1_Y616_H611Q]" label="bucket B"
seq="DFKIIYIAPMR [SNRNP200_Y540]" label="bucket C"
seq="KKLAEYGPQGR [CLCA1_Y147]" label="bucket A"

Ask: Please indicate the class for FPLAEYTEVKT [ALDH1A3_Y497_A493P_YF] based on its phosphorylation enrichment.
Result: bucket B

Ask: Now the same for SNMPTYSGHFT [GRIN2A_Y1224]
Result: bucket A

Ask: Then IFLADYRIMEG [ALOX12B_Y318_YF] ?
Result: bucket B

Ask: Now the sequence EQFELYCEMGS [CBL_Y371_YF]
Result: bucket C

Ask: Continue with TDLAFYLVCKG [ASL_Y376_R379C_YF]
Result: bucket C

Ask: How about VKPENYWRLDI [VHL_Y175_R176W] ?
Result: bucket B

Ask: What do you get for TRDTDYQMTKR [ADA_Y308_L304R] ?
Result: bucket A

Ask: Also need IEDNKYTAREG [HCK_Y411_E410K] , thanks.
Result: bucket B

====

Tested on: c-Src
Assay Notes: phosphorylation enrichment, bacterial display (enrichment ratio); higher = better substrate or ligand; peptides without Tyr show the background
Recorded phosphorylation enrichment, one value per entry.
# output: bare number, no unit

Ask: # phosphorylation enrichment lookup, item SHMVDYQPFRK [TEX37_Y25_YF]
Result: 0.672

Ask: Another: IVAEYYDNLPH [DEGS1_Y284_A280V]
Result: 0.958

Ask: And QNAGDYFDLFG [PTPN11_Y62_T59A_YF] ?
Result: 1.2

====

Quick reference for phosphorylation enrichment among some sequences
Measurement Target: MERTK (UniProt Q12866)
Assay Notes: phosphorylation enrichment, bacterial display (enrichment ratio); higher = better substrate or ligand; peptides without Tyr show the background
Form rule: numeric answer, no unit written next to it.

seq="YGGLRYGYGVL [KRTAP20-2_Y13]" recorded_metric="phosphorylation enrichment" data_value=0.497
seq="MWGSDYVQLSR [MAP3K4_Y582]" recorded_metric="phosphorylation enrichment" data_value=0.561
seq="DCVRMYELVHR [GLE1_Y135_G130D]" recorded_metric="phosphorylation enrichment" data_value=3.03
seq="VLNKGYRMVVN [HINT1_Y94_G89V]" recorded_metric="phosphorylation enrichment" data_value=0.339
seq="IYRASYVPFAA [RBM47_Y541_G538R]" recorded_metric="phosphorylation enrichment" data_value=0.66
seq="KPPFSYNALIR [FOXG1_Y186_M191R]" recorded_metric="phosphorylation enrichment" data_value=0.477
seq="FPILNYKDIRK [CFAP221_Y798_M795I]" recorded_metric="phosphorylation enrichment" data_value=0.453
seq="WKEREYEVVRD [CPS1_Y634_I632R]" recorded_metric="phosphorylation enrichment" data_value=0.478

Ask: Report phosphorylation enrichment for RALRHYYKLNI [ETV6_Y401] please.
Result: 0.763

Ask: Then what about the sequence RGDCMYAPLLG [AR_Y269] ?
Result: 10.4

Ask: Now the same for GHEEFYSTHPH [LRRK2_Y1402_R1398H]
Result: 1.77

Ask: What would you report for IHSGIYFKPES [L2HGDH_Y102_YF] ?
Result: 6.44

Ask: Query AESPEHVHMFT [FAM111A_Y511_Y511H_YF] next
Result: 0.416

Ask: Would you mind doing MLEVSYVDRNS [F10_Y384_P383S] as well?
Result: 0.37

====

Test system: c-Abl (mouse)
Assay Notes: phosphorylation enrichment, bacterial display (enrichment ratio); higher = better substrate or ligand; peptides without Tyr show the background
Recorded Metric: phosphorylation enrichment
// print number alone

Answered examples (3):
seq="QRAADYYSQQM [GBP6_Y333]" recorded_metric="phosphorylation enrichment" data_value=0.591
seq="GEDEPYSEPYA [APBA1_Y183]" recorded_metric="phosphorylation enrichment" data_value=0.845
seq="NVGGKYSYLKV [GRM3_Y478]" recorded_metric="phosphorylation enrichment" data_value=0.524

Ask: Report phosphorylation enrichment for WPLKWYVPECI [ZAP70_Y506_A507V] please.
Result: 0.757

Ask: Item: TYTVSYLPDMS [FLNC_Y1602]
Result: 0.55
